Below: a set of entries, each annotated with reported pIC50.
# Test system: SK-OV-3
# Experimental details: Antiproliferative activity against human SKOV3 cells after 48 hrs by SRB assay
# Type: functional, cell-based
# Condition parameters: SK-OV-3, 48 h
By convention, pIC50 is the negative base-10 log of a molar concentration.

query: Give the measured pIC50 for COc1ccc(N(C)c2nc(C)nc3c2CCC3)cc1.Cl
result: 7.95

query: Give the measured pIC50 for COc1ccc(N(C)c2nc(C)nc3c2CC(C)C3)cc1.Cl (racemic)
result: 7.41
